Assignment: determine reported ddG of mutation (higher = less stable) for the given variants.
B1: Cytochrome b5, P00171 (parent)
chain: MAEESSKAVKYYTLEEIQKHNNSKSTWLILHYKVYDLTKFLEEHPGGEEVLREQAGGDATENFEDVGHSTDARELSKTFIIGELHPDDRSKITKPSESIITTIDSNPSWWTNWLIPAISALFVALIYHLYTSEN

- Variants of: B1
- Test Settings: Bos taurus; pH 7; 67.2 °C; Thermal; Absorbance; Sodium phosphate 100 mM; structure 1CYO; whole UniProt chain shown
Note: state the figure and append the unit.

Q: Data request, read-out ddG of mutation (higher = less stable), for `V66Y`
A: 1.29 kcal/mol

Q: Please look up its ddG of mutation (higher = less stable): `V66K`
A: 2.34 kcal/mol

Q: Please give the measured ddG of mutation (higher = less stable) for this variant: `V66H`
A: 1.63 kcal/mol

Q: Report ddG of mutation (higher = less stable) for `V66E` please.
A: 1.1 kcal/mol

Attribution: FireProtDB (doi:10.1021/bi990893b)
